Cited source: paper PMC4081100

Give binding signal for every item shown.
TEST SYSTEM: GST-WRKY1(266-371) (Arabidopsis thaliana, UniProt Q9SI37 266-371)
Sequence (Q9SI37 266-371): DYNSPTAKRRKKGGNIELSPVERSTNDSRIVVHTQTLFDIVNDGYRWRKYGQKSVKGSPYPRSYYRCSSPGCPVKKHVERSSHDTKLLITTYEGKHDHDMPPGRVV
TEST DESCRIPTION: universal protein binding microarray (PBM); high values mean tight binding
RUN PARAMETERS: protein: recombinant; tags: GST; dsDNA, one strand shown
Answers are plain numbers, in E-score.

BIOSEQUENCE | NUMERIC VALUE
CCAGTCAA | 0.474
TGACCGAA | 0.459
GTCAAGAC | 0.446

Fill in binding signal for each of the 8 sequences listed.
1. CGCTGACC
2. ATTTGACC
3. AGTCAAAG
4. AAGTTGAC
5. TGAGTCAA
6. AATTACGT
7. CGTCTGAC
8. GTTCCGTA

Reply:
0.474
0.481
0.486
0.476
0.48
0.185
0.418
0.0936

Fill in binding signal for each of the 3 sequences listed.
1. ACGTCAAA
2. GAAGGTCA
3. ACAGGTCA

Reply:
0.421
0.426
0.443

Fill in binding signal for each of the 4 sequences listed.
1. GGTCAATA
2. GTCAAAAC
3. CTGACCAG
4. AGTCAAAC

Reply:
1: 0.482; 2: 0.447; 3: 0.444; 4: 0.491

---

TEST SYSTEM: GST-ANAC092(1-285) full length (Arabidopsis thaliana, UniProt Q9FKA0 1-285)
Sequence: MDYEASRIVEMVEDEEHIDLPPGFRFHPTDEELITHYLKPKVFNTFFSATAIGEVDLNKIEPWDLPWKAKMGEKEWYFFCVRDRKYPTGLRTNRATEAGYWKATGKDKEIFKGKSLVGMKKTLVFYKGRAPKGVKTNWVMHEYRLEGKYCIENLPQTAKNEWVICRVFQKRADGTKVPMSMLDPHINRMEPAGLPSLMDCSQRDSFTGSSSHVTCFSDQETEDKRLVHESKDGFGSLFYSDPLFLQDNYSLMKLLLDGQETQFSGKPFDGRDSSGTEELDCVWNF
TEST DESCRIPTION: universal protein binding microarray (PBM); transcription factors of Arabidopsis thaliana; high values mean tight binding
RUN PARAMETERS: protein: recombinant; tags: GST; chain copies: 2; dsDNA, one strand shown
VALUE TYPE: binding signal (E-score)
Answers are plain numbers, in E-score.

Example cases with answers are listed next.
BIOSEQUENCE | READOUT UNITS | binding signal
GCGTCAAA | E-score | 0.0819
ATACGGCA | E-score | 0.433
TAGCGTAA | E-score | 0.454
ACGCAAGG | E-score | 0.448
GCAAGCAA | E-score | 0.42
GCGTGTAA | E-score | 0.438
GTACGGAA | E-score | 0.376
CACGTAAA | E-score | 0.431
ATACGCCA | E-score | 0.455
CCACGCCA | E-score | 0.415

Fill in binding signal for each of the 8 sequences listed.
1. AAGTAAGT
2. CACGCAAA
3. CTTAAGTA
4. ACGGCACC
5. ATACGTAT
6. AGGGGAAA
7. GTGGCGTA
8. CTTGCGTC

Reply:
[0.259, 0.486, 0.198, 0.452, 0.37, 0.0577, 0.459, 0.402]

Fill in binding signal for each of the 4 sequences listed.
1. TGACCAAA
2. CGTCAAAC
3. CACGTTAA
4. ATGACGTG

Reply:
1: 0.126; 2: 0.134; 3: 0.442; 4: 0.463

Fill in binding signal for each of the 8 sequences listed.
1. CACGGAAC
2. CGTCAACC
3. ACGTCATC
4. GAGGAAAC
5. ATTCCGTA
6. ACGCGATC
7. ATTTCCCC
8. ACAAGTTA

Reply:
0.425
0.0571
0.449
0.0772
0.342
0.402
0.175
0.41

Fill in binding signal for each of the 4 sequences listed.
1. CACGCAAG
2. CACGTAAG
3. GCACTCAA
4. GTTTCCTA

Reply:
[0.484, 0.446, 0.426, 0.179]

Fill in binding signal for each of the 4 sequences listed.
1. TGAAGTCA
2. GTTGACTA
3. ATTCCGTG
4. ATAGCGTA

Reply:
[0.133, 0.133, 0.401, 0.438]

Fill in binding signal for each of the 7 sequences listed.
1. ATTTCTTA
2. ACGTTATC
3. ATGACGTA
4. GCGTGCAC
5. GTTACGTA
6. ACGCCAAC
7. ATGCGTAA

Reply:
[0.185, 0.431, 0.437, 0.415, 0.456, 0.436, 0.356]

Ask: What does the record list as binding signal for TACGCGAA ?
Reply: 0.368
